# System: LXFL 529 NSCLC
# methodSummary: NCI tumour cell line growth inhibition, 48 h
reportedMetric: TGI (µM)
All answers are understood in µM, so give the number only.

In plain terms, Cc1cc([N+](=O)[O-])ccc1NC(=O)C(=O)C(C(=O)c1ccccc1-c1ccccc1)C1OC(=O)c2ccccc21 (centres undefined) has a documented TGI of 30

What the record says about COC(=O)C(Cc1nc2ccccc2[nH]c1=O)/C(=N\NC(C)(C)C)C(=O)Nc1c(C)cc(Br)cc1C (centres undefined) : TGI is 47.9

Lab book: TGI of O=[N+]([O-])c1ccc(C2CC(c3ccccc3Cl)=Nc3ccccc3S2)cc1 (centres undefined) noted as 11.8

Per the records, this compound ( `c1ccc([CH2][Sn]([CH2]c2ccccc2)([O]c2cccc3cccnc23)[O]c2cccc3cccnc23)cc1` ) has TGI equal to 1.2

# compound `COc1ccc(OC(C)=O)c2c1CCC=CC2=O` ; its TGI = 21.5

---

# Tested on: SW-620 colon
# methodSummary: NCI tumour cell line growth inhibition, 48 h
Exercise: for every item that follows, state its recorded TGI.

Form field TGI, entry O=C(O)CSC(CC1(c2ccc(Cl)cc2)NC(=O)CS1)c1ccc(Cl)cc1 (stereo not drawn) : > 100 µM

Notebook: `O=C1NC(=S)N/C1=C\c1cc2c(=O)c3ccccc3sc2s1` , TGI read as > 100 µM

Sure, the documented TGI for `NC1=CC(=O)c2cccnc2C1=O` is 3.57 µM

---

# Test system: NCI-H460 lung
# methodSummary: NCI tumour cell line growth inhibition, 48 h
reportedMetric: TGI (µM)
Write it as a number; the unit µM goes unstated.

For this compound ( O=P1(Oc2ccccc2)N=P(c2ccccc2)(c2ccccc2)C=C(c2ccc(Cl)cc2)N1 (stereo not drawn) ), measured TGI is 18.5

response.value for CC(=O)OC(CN1CCN(c2ccccn2)CC1)Cn1sc2nc(C)cc(C)c2c1=O (stereo not drawn) (field: TGI) = 35.2

---

# Test system: HL-60(TB) leukemia
# methodSummary: NCI tumour cell line growth inhibition, 48 h; in the data active means GI50 below about 0.43 µM; inactive means the rest
Output constraint: value belongs to active, inactive

*Q* What did the test return for `C[n+]1c(/C=C/c2c[nH]c3ccccc23)ccc2ccccc21` ?
*A* inactive

*Q* Record request — test call for `N.N.NCCCCCN.O=C([O-])CCl.O=C([O-])CCl.O=C([O-])CCl.O=C([O-])CCl.[Pt+4].[Pt+4]`
*A* inactive

*Q* Just curious, what result did `COC(=O)[C@@H](C)C[C@H](Cc1cn(C)c2ccccc12)NC(=O)c1csc([C@@H](C[C@H](C(C)C)N(C)C(=O)[C@@H](NC(=O)[C@H]2CCCCN2C)C(C)C)OC(C)=O)n1` get here?
*A* active

*Q* Recorded call for COC1C(CO)OC(n2c3ccccc3c3c4c(c5c6ccccc6[nH]c5c32)C(=O)NC4=O)C(O)C1O (stereo not drawn) ?
*A* active

*Q* Tell me the recorded outcome of this test for `CCN(CC)CCNc1ccc(C)c2sc3cc(Cl)ccc3c(=O)c12` .
*A* inactive

*Q* Tell me the recorded outcome of this test for `CN1CCC(COc2cnc(-c3cccc(Cn4nc(-c5cccc(C#N)c5)ccc4=O)c3)nc2)CC1` .
*A* inactive

*Q* Could you kindly confirm the outcome this assay logged for `COc1ccc(N=Cc2c(O)ccc3c2oc2cc(Cl)c(O)c(Cl)c23)cc1` ?
*A* inactive

*Q* Could you kindly confirm the outcome this assay logged for `N#Cc1c(NC(=O)NCc2ccccc2)sc2c1CCCC2` ?
*A* active

*Q* Fill in: this test's call for `COc1ccc(C(=O)Nc2ncc(Cc3cccc(Cl)c3)s2)cc1OC` is ___
*A* active

*Q* Tell me the assay call for `NCCCNc1nc2ccccc2c2c(=O)c3cc(F)cc(F)c3sc12` please.
*A* inactive

*Q* Hi, sorry to bother you, what did the test record for `Cc1cc(Cl)cc2c(N=Nc3ccc(S(N)(=O)=O)cc3)c(O)[nH]c12` ?
*A* inactive

*Q* Name the outcome recorded for `CC[C@H](NC(=O)[C@H]1CCCCN1C)C(=O)N(C)[C@H](C[C@@H](OC(C)=O)c1nc(C(=O)N[C@@H](Cc2ccccc2)C[C@H](C)C(=O)O)cs1)C(C)C` in the assay.
*A* active

*Q* Given NS(=O)(=O)OCC1OC(n2cnc3cncnc32)C(O)C1O (stereo not drawn) , state the outcome it received in this test.
*A* active

*Q* What call does the record list for `Cc1cccc(-c2[nH]ncc2-c2ccc3ncccc3n2)n1` ?
*A* inactive

*Q* Dear all, I need the recorded test outcome for `CCOC(=O)[C@@H](C)C[C@H](Cc1ccccc1)NC(=O)c1nc([C@@H](C[C@H](C(C)C)N(C)C(=O)[C@@H](NC(=O)[C@H]2CCCCN2C)C(C)C)OC(C)=O)sc1CCOCc1ccccc1` , thank you.
*A* active

*Q* # outcome recorded in this test, key = `O=C1CC[C@H](N2C(=O)c3cccc4c(Cc5ccc(CN6CCOCC6)cc5)ccc2c34)C(=O)N1`
*A* inactive

*Q* Per the assay record, what outcome was assigned to `Cc1cc(Nc2ccc(OCc3ccccc3)cc2)nc2cc(O)ccc12` ?
*A* inactive

*Q* Outcome? CCCCCCCC/C=C/CCCCCCCC1=NC(C)(C)CN1CC(C)O (stereo not drawn)
*A* inactive
